Collected IC50 values appear next to each entry.
target: Granzyme B (human lymphocytes) (Homo sapiens (Human)); test: human Granzyme B biochemical assay; details: Granzyme B (human lymphocytes) 5 nM, substrate Ac-IETD-AFC 200 μM, Cpd incubation with enzyme 30 mins, 22° C., read time 60 mins; read-out: IC50

Example entries and their recorded answers appear below.
CC[C@H](C)[C@H](NC(=O)COCCF)C(=O)N[C@H]1CCc2cccc3c2N(C1=O)[C@H](C(=O)NCCc1cnn[nH]1)C3	> 5 µM
CC[C@H](C)[C@H](NC(=O)Cc1csc2ccccc12)C(=O)N[C@H]1COc2cccc3c2N(C1=O)[C@H](C(=O)NCc1c[nH]nn1)C3	0.001 to 0.3 µM
CC(=O)N[C@@H](CC(C)C)C(=O)N[C@H]1CCc2cccc3c2N(C1=O)[C@H](C(=O)NCc1c[nH]nn1)C3	1 to 5 µM
CC[C@H](C)[C@H](NC(=O)COCCF)C(=O)N[C@H]1CCc2cccc3c2N(C1=O)[C@H](C(=O)NCc1nc(O)n[nH]1)C3	> 5 µM
O=C(CNC(=O)c1ccccc1)N[C@H]1CCc2cccc3c2N(C1=O)[C@H](C(=O)NCc1c[nH]nn1)C3	> 5 µM

Now consider the entry below.
Q) Suppose we examine the compound C[C@H](NC(=O)c1ccccc1)C(=O)N[C@H]1CCc2cccc3c2N(C1=O)[C@H](C(=O)NCc1c[nH]nn1)C3 ; what IC50 value has been reported?
A) > 5 µM

----------
Collected IC50 values appear next to each entry.
molecular target: Granzyme B (human lymphocytes) (Homo sapiens (Human), UniProt P10144); test: human Granzyme B biochemical assay; details: Granzyme B (human lymphocytes) 5 nM, substrate Ac-IETD-AFC 200 μM, Cpd incubation with enzyme 30 mins, 22° C., read time 60 mins; read-out: IC50
Sequence (P10144 21-247): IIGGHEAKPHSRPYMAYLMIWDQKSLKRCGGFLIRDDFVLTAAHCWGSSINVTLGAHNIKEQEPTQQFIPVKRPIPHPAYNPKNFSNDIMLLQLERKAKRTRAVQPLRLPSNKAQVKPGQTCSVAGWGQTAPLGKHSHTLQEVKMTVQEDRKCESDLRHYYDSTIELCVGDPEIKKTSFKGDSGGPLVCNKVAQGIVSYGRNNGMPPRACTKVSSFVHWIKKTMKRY

Example entries and their recorded answers appear below.
CC[C@H](C)[C@H](NC(=O)COCCF)C(=O)N[C@H]1CCc2cccc3c2N(C1=O)[C@H](C(=O)NCB(O)O)C3 [Compound C170]	301 to 1000 nM
CC[C@H](C)[C@H](NC(=O)COCCF)C(=O)N[C@H]1CCc2cccc3c2N(C1=O)[C@H](C(=O)NCc1ccncc1)C3 [Compound C123]	> 5000 nM

Now consider the entry below.
Q) Any idea what IC50 came out for CCC(C)[C@H](NC(=O)COCCF)C(=O)N[C@H]1CCc2cccc3c2N(C1=O)[C@H](C(=O)NCc1ccoc1)C3 (stereo in doubt) [Compound C108] on Granzyme B (human lymphocytes) (Homo sapiens (Human), UniProt P10144)?
A) > 5000 nM

----------
target: Granzyme B (human lymphocytes) (Homo sapiens (Human), UniProt P10144); test: human Granzyme B biochemical assay; settings: Granzyme B IC50 as repeated in Table 7
pIC50: −log10 of the molar value.
Collected pIC50 values appear next to each entry.

Example entries and their recorded answers appear below.
CC[C@H](C)[C@H](NC(=O)CF)C(=O)N[C@H]1CCc2cccc3c2N(C1=O)[C@H](C(=O)NCc1c[nH]nn1)C3 [Compound C059]	6.52 to 9.00
CC(C)[C@H](NC(=O)CF)C(=O)N[C@H]1CCc2cccc3c2N(C1=O)[C@H](C(=O)NCc1c[nH]nn1)C3 [Compound C057]	6.52 to 9.00

Now consider the entry below.
Q) Suppose we examine the compound CC[C@H](C)[C@H](NC(=O)CF)C(=O)N[C@H]1COc2cccc3c2N(C1=O)[C@H](C(=O)NCc1c[nH]nn1)C3 [Compound C098] ; what pIC50 value has been reported?
A) 6.52 to 9.00

----------
biological target: Granzyme B (human lymphocytes) (Homo sapiens (Human), UniProt P10144); assay: human Granzyme B biochemical assay; details: Granzyme B (human lymphocytes) 5 nM, substrate Ac-IETD-AFC 200 μM, Cpd incubation with enzyme 30 mins, 22° C., read time 60 mins; read-out: IC50
pIC50: −log10 of the molar value.
Collected pIC50 values appear next to each entry.

Q) Suppose we examine the compound O=C(O)CC[C@H](NC(=O)c1ccccc1)C(=O)N[C@H]1CCc2cccc3c2N(C1=O)[C@H](C(=O)NCc1c[nH]nn1)C3 [Compound C041] ; what pIC50 value has been reported?
A) < 5.30

Q) Suppose we examine the compound O=C(O)CC[C@H](NC(=O)Cc1ccccc1)C(=O)N[C@H]1CCc2cccc3c2N(C1=O)[C@H](C(=O)NCc1c[nH]nn1)C3 [Compound C019] ; what pIC50 value has been reported?
A) < 5.30

Q) Suppose we examine the compound CC[C@H](C)[C@H](NC(=O)COCCF)C(=O)N[C@H]1CCc2cccc3c2N(C1=O)[C@H](C(=O)NCc1cn[nH]c1)C3 [Compound C116] ; what pIC50 value has been reported?
A) < 5.30

Q) Suppose we examine the compound CC[C@@H](C)[C@H](NC(=O)Cc1csc2ccccc12)C(=O)N[C@H]1CCc2cccc3c2N(C1=O)[C@H](C(=O)NCc1c[nH]nn1)C3 [Compound C054] ; what pIC50 value has been reported?
A) 6.52 to 9.00

Q) Suppose we examine the compound CC[C@H](C)[C@H](NC(=O)COCCF)C(=O)N[C@H]1CCc2cccc3c2N(C1=O)[C@H](C(=O)NCc1cscn1)C3 [Compound C115] ; what pIC50 value has been reported?
A) < 5.30

Q) Suppose we examine the compound CC(C)(NC(=O)Cc1csc2ccccc12)C(=O)N[C@H]1CCc2cccc3c2N(C1=O)[C@H](C(=O)NCc1c[nH]nn1)C3 [Compound C044] ; what pIC50 value has been reported?
A) < 5.30

Q) Suppose we examine the compound CC[C@H](C)[C@H](NC(=O)COCCF)C(=O)N[C@H]1CCc2cccc3c2N(C1=O)[C@H](C(=O)NCc1c[nH]nn1)C3 [Compound C058] ; what pIC50 value has been reported?
A) 6.52 to 9.00

----------
target: UniProt P10144; test: human Granzyme B biochemical assay; conditions: Granzyme B (human lymphocytes) 5 nM, substrate Ac-IETD-AFC 200 μM, Cpd incubation with enzyme 30 mins, 22° C., read time 60 mins; read-out: IC50
MEASUREMENT_TYPE: IC50

Example entries and their recorded answers appear below.
CC(=O)N[C@H](C(=O)N[C@H]1CCc2cccc3c2N(C1=O)[C@H](C(=O)NCc1c[nH]nn1)C3)C1CCC1	1 to 300 nM
CC(=O)N[C@@H](C)C(=O)N[C@H]1CCc2cccc3c2N(C1=O)[C@H](C(=O)NCc1c[nH]nn1)C3	> 5000 nM
CC[C@H](C)[C@H](NC(=O)COCCF)C(=O)N[C@H]1CCc2cccc3c2N(C1=O)[C@H](C(=O)NCc1cnc[nH]1)C3	> 5000 nM
CC(C)(C)[C@H](NC(=O)c1ccccc1)C(=O)N[C@H]1CCc2cccc3c2N(C1=O)[C@H](C(=O)NCc1c[nH]nn1)C3	301 to 1000 nM
CC[C@H](C)[C@H](NC(=O)COCCF)C(=O)N[C@H]1CCc2cccc3c2N(C1=O)[C@H](C(=O)NCc1ccc[nH]1)C3	> 5000 nM

Now consider the entry below.
Q) Suppose we examine the compound CC[C@H](C)[C@H](NC(=O)Cc1cc2ccccc2s1)C(=O)N[C@H]1CCc2cccc3c2N(C1=O)[C@H](C(=O)NCc1c[nH]nn1)C3 ; what IC50 value has been reported?
A) 1 to 300 nM

----------
Collected pIC50 values appear next to each entry.
molecular target: UniProt P10144; assay: human Granzyme B biochemical assay; conditions: Granzyme B (human lymphocytes) 5 nM, substrate Ac-IETD-AFC 200 μM, Cpd incubation with enzyme 30 mins, 22° C., read time 60 mins; read-out: IC50
pIC50: −log10 of the molar value.

Example entries and their recorded answers appear below.
CC(=O)N[C@@H](CO)C(=O)N[C@H]1CCc2cccc3c2N(C1=O)[C@H](C(=O)NCc1c[nH]nn1)C3 [Compound C029]	< 5.30
CC[C@H](C)[C@H](NC(=O)COCCF)C(=O)N[C@H]1CCc2cccc3c2N(C1=O)[C@H](C(=O)NCc1ccccc1Cl)C3 [Compound C130]	< 5.30
C[C@H](NC(=O)Cc1ccccc1)C(=O)N[C@H]1CCc2cccc3c2N(C1=O)[C@H](C(=O)NCc1c[nH]nn1)C3 [Compound C013]	< 5.30
CC[C@H](C)[C@H](NC(=O)c1cccc(OC)c1)C(=O)N[C@H]1CCc2cccc3c2N(C1=O)[C@H](C(=O)NCc1c[nH]nn1)C3 [Compound C061]	6.52 to 9.00
CC[C@H](C)[C@H](NC(=O)COCCF)C(=O)N[C@H]1CCc2cccc3c2N(C1=O)[C@H](C(=O)NCc1ccccc1C)C3 [Compound C127]	< 5.30
O=C(N[C@@H](Cc1ccc(F)cc1)C(=O)N[C@H]1CCc2cccc3c2N(C1=O)[C@H](C(=O)NCc1c[nH]nn1)C3)c1ccccc1 [Compound C043]	< 5.30

Q) Suppose we examine the molecule CC[C@H](C)[C@H](NC(=O)Cc1nc2ccccc2o1)C(=O)N[C@H]1CCc2cccc3c2N(C1=O)[C@H](C(=O)NCc1c[nH]nn1)C3 [Compound C160] ; what pIC50 value has been reported?
A) 6.52 to 9.00
